# TARGET SYSTEM: T1, active catalytic domain of MMP 1 (UniProt P03956 100-269, limits assumed)
# T1 construct: domain: catalytic domain
# T1 sequence (looked up): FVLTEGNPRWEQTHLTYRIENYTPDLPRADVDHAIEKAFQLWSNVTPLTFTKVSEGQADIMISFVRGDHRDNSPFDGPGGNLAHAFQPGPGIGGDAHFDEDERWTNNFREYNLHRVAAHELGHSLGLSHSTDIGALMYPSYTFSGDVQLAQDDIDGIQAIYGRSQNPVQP
# ASSAY: dot blot, 50 ng catalytic domain on Hybond C-extra, periplasmic extract, anti-c-myc detection
EXPERIMENTAL ENDPOINT: binding result

Prompt line: Give the reported binding result for this binder. MMP-12 P1-26 (VHH, Tested as periplasmic extract, detected through its c-myc tag) VHH: QVQLQESGGGLVRAGGSLRLSCVASGRTLSKYRMGWFRQFPGKERELVAEIEWKSSSTWYRDSVKGRFTISRDNAKNTVYLRMNSLKPEDTAVYYCAAATLGEPLVKYTYWGQGTQVTVSS
Response line: no binding

Prompt line: Give the reported binding result for this binder. MMP-12 P1-41 (VHH, Tested as periplasmic extract, detected through its c-myc tag) VHH: QVQLQDSGGGLVRTGDSLRLSCVVFGGTISTYAMGWFRRAPGKEREFVAAIDASGGFTEYADSVRGRFRIARDNPLSAVYLQMNSLKPEDTAFYYCAADKDRDTVVRFTTTPNEYDYWGQGTQVTVSS
Response line: no binding

Prompt line: Give the reported binding result for this binder. MMP-12 P1-1 (VHH, Tested as periplasmic extract, detected through its c-myc tag (pAX004: c-myc and hexahistidine tags)) VHH: QVQLQESGGGLVQPGGSLRLSCVASGFTFSDYPMAWVRQAPGKGLEWISVINSGGVNTSYAASVKGRFTISRDNAKNTLFLQMNSLKPEDTAVYYCAKYSLKNEQYWRGQGTQVTVSS
Response line: no binding

Prompt line: Give the reported binding result for this binder. MMP-12 P1-44 (VHH, Tested as periplasmic extract, detected through its c-myc tag) VHH: QVQLQESGGGLVQPGGSLRLSCAASGFTFNNHWLYWVRQAQGKGLEWVSAINPGGSTVYLDSVKGRFTISRGNTKNTLYLQMNSLKSEDTAVYYCTKAMAWATDWDEYDLWGQGTQVTVSS
Response line: no binding
